// data source = patent US20230340011A1

- system.under.test: LXRβ (Homo sapiens (Human), UniProt P55055)
- Sequence (P55055 whole entry, the tested form may be a part): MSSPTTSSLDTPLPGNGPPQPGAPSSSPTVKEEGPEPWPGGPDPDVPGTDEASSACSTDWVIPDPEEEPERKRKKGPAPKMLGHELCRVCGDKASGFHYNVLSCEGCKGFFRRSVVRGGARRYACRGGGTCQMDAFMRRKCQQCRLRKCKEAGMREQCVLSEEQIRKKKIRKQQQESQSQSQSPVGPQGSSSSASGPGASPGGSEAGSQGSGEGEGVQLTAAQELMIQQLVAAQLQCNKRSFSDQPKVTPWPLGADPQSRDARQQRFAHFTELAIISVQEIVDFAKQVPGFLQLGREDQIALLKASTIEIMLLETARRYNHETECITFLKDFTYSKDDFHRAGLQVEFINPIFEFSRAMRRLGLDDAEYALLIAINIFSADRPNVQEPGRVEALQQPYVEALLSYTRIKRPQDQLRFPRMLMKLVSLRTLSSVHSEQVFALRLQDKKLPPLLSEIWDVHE
- experimental.details: In vitro assay LXRβ: PathHunter NHR CHO cells, LXRβ / Steroid Receptor Co-activator Peptide enzyme fragment complementation
- Format: cell-based
- condition.details: PathHunter NHR CHO cells, full-length human LXRβ and SRCP, chemiluminescent signal; read-out: LXRβ PPI
pEC50: −log10 of the molar value.
Recorded pEC50, one value per entry.

Here's what some known entries look like.
C[C@H](CCC(=O)N1CCN(c2cc(O)ncn2)CC1)[C@H]1CC[C@H]2[C@@H]3CC=C4C[C@@H](O)CC[C@]4(C)[C@H]3CC[C@]12C [Example 631]
< 5.00
C[C@H](CCC(=O)N1CCC(OC(=O)N(C)C)CC1)[C@H]1CC[C@H]2[C@@H]3CC=C4C[C@@H](O)CC[C@]4(C)[C@H]3CC[C@]12C [Example 286]
< 5.00
C[C@@H](CCC(=O)N[C@H]1CC[C@@H](C(=O)N(C)C)CC1)[C@H]1CC[C@H]2[C@@H]3CC=C4C[C@@H](O)CC[C@]4(C)[C@H]3CC[C@]12C [Example 641]
< 5.00
C[C@H](CCC(=O)N(C)OCCC(F)(F)F)[C@H]1CC[C@H]2[C@@H]3CC=C4C[C@@H](O)CC[C@]4(C)[C@H]3CC[C@]12C [Example 29]
< 5.00
CCC(=O)N1CCN(C(=O)CC[C@@H](C)[C@H]2CC[C@H]3[C@@H]4CC=C5C[C@@H](O)CC[C@]5(C)[C@H]4CC[C@]23C)CC1 [Example 385]
< 5.00

## Input Fill in the blank: the reported pEC50 of C[C@H](CCC(=O)N1CCN(C(=O)c2ccncn2)CC1)[C@H]1CC[C@H]2[C@@H]3CC=C4C[C@@H](O)CC[C@]4(C)[C@H]3CC[C@]12C [Example 334] is ____.
## Output < 5.00

* * *

- system.under.test: LXRβ (Homo sapiens (Human))
- experimental.details: In vitro assay LXRβ: PathHunter NHR CHO cells, LXRβ / Steroid Receptor Co-activator Peptide enzyme fragment complementation
- Format: cell-based
- condition.details: PathHunter NHR CHO cells, full-length human LXRβ and SRCP, chemiluminescent signal; read-out: LXRβ PPI
pEC50: −log10 of the molar value.
Recorded pEC50, one value per entry.

Here's what some known entries look like.
C[C@H](CCC(=O)N1CCN(c2ccnc(O)n2)CC1)[C@H]1CC[C@H]2[C@@H]3CC=C4C[C@@H](O)CC[C@]4(C)[C@H]3CC[C@]12C
< 5.00
C[C@H](CCC(=O)N(C)C)[C@H]1CC[C@H]2[C@@H]3C[C@@H](O)[C@H]4C[C@@H](O)CC[C@]4(C)[C@H]3CC[C@]12C
< 5.00
C[C@H]1CCCN(C(=O)CC[C@@H](C)[C@H]2CC[C@H]3[C@@H]4CC=C5C[C@@H](O)CC[C@]5(C)[C@H]4CC[C@]23C)C1
5.00 to 6.00
C=C[C@@](O)(CC[C@@H](C)[C@H]1CC[C@H]2[C@@H]3CC=C4C[C@@H](O)CC[C@]4(C)[C@H]3CC[C@]12C)C(F)(F)F
5.00 to 6.00

Now for a further compound.
## Input // lookup pEC50 | system=LXRβ (Homo sapiens (Human)) | key= C[C@H](CC(=O)N1CCN(c2ccncn2)CC1)[C@H]1CC[C@H]2[C@@H]3CC=C4C[C@@H](O)CC[C@]4(C)[C@H]3CC[C@]12C
## Output < 5.00
